Reference source: patent US20240408169A1

Answer each item with its documented IC50.
# tested on: CyclinE1/CDK2 (Homo sapiens, UniProt P24864)
# Construct: purchased Eurofins, discovery 14-475
# method summary: Fluorescence Polarization (FP) competitive binding assay, Cyclin E1/Cdk2;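 also: readings taken after two-hour equilibration at room temperature in HEPES buffer with NaCl, DTT, NP-40 and BSA, IC50 fitted from eight-concentration serial dilution series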
# test parameters: 10 nM Cyclin E1/Cdk2, 2 nM FAM probe; average of 2-3 independent experiments; read-out: Cyclin E FP IC50
*1 amine or outer side, *2 acyl side, *3 side chain or, on linkers, in order; H or OH if unused. Where a SMILES comes first, the peptide text is derived from it. Bridges are numbered along the chain shown (N, C = ends). [ ]: non-standard residue; d: D form. The star is where a group is joined. X7 = CC(C)C(=O)N1[C@H]2CC[C@@H]1C=C(c1ccc(F)cc1C[C@@H](C(=O)[*:2])N(C)[*:1])C2; X191 = CN([C@@H](Cc1cc(Cl)ccc1-c1ccc(N2CCOCC2)c(F)c1F)C(=O)[*:2])[*:1]; NMehhhLys(Me) = CN([C@@H](CCCCCCCN(C)[*:3])C(=O)[*:2])[*:1]; X118 = Cc1cc(-c2ccc(Cl)cc2C[C@@H](C(=O)[*:2])N(C)[*:1])cnn1; NMe(hhhLys) = CN([C@@H](CCCCCCCN[*:3])C(=O)[*:2])[*:1]; cBuCO(3,3-F2-1-CF3) = O=C(C1(C(F)(F)F)CC(F)(F)C1)*; Pro(trans-4-F) = O=C(O)[C@@H]1C[C@@H](F)CN1; Gly(cPr) = N[C@H](C(=O)O)C1CC1
Answer as a quantity: numeral, then unit.

// returns reported IC50 for input CC(C)C[C@@H]1NC(=O)[C@@H](N(C)C(=O)[C@@H](NC(=O)[C@@H]2C[C@@H](F)CN2C(=O)C2(C(F)(F)F)CC(F)(F)C2)C2CC2)CCCCCCCN(C)C(=O)[C@H](Cc2cc(Cl)ccc2-c2ccc(N3CCOCC3)c(F)c2F)N(C)C1=O [Example 386] ({cBuCO(3,3-F2-1-CF3)}-[Pro(trans-4-F)][Gly(cPr)][NMehhhLys(Me)]L[X191]; lactam 3-C)
900 nM

// next record CC(C)C[C@@H]1NC(=O)[C@@H](N(C)C(=O)[C@@H](NC(=O)[C@@H]2C[C@@H](F)CN2C(=O)C2(C(F)(F)F)CC(F)(F)C2)C2CC2)CCCCCCCN(C)C(=O)[C@H](Cc2cc(F)ccc2C2=C[C@H]3CC[C@@H](C2)N3C(=O)C(C)C)N(C)C1=O [Example 318] ({cBuCO(3,3-F2-1-CF3)}-[Pro(trans-4-F)][Gly(cPr)][NMehhhLys(Me)]L[X7]; lactam 3-C)
280 nM

// next record Cc1cc(-c2ccc(Cl)cc2C[C@H]2C(=O)NCCCCCCC[C@H](N(C)C(=O)[C@@H](NC(=O)[C@@H]3C[C@@H](F)CN3C(=O)C3(C(F)(F)F)CC(F)(F)C3)C3CC3)C(=O)N[C@@H](CC(C)C)C(=O)N2C)cnn1 [Example 295] ({cBuCO(3,3-F2-1-CF3)}-[Pro(trans-4-F)][Gly(cPr)][NMe(hhhLys)]L[X118]; lactam 3-C)
3690 nM

====

# Test system: NCI-H1048 cells
# method summary: MTT proliferation assay, NCI-H1048;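 also: Dose-response in 96-well plates over 8 or 10 concentration points, with exposure spanning 3-4 cell doublings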
# Format: cell-based
# test parameters: 5 days compound exposure, 1:3 serial dilution starting at 10 μM
*1 amine or outer side, *2 acyl side, *3 side chain or, on linkers, in order; H or OH if unused. Where a SMILES comes first, the peptide text is derived from it. Bridges are numbered along the chain shown (N, C = ends). [ ]: non-standard residue; d: D form. The star is where a group is joined. X175 = Cc1cc(-c2ccc(Cl)cc2C[C@@H](C(=O)[*:2])N(C)[*:1])ccc1N1CCOCC1; NMehhhLys(Me) = CN([C@@H](CCCCCCCN(C)[*:3])C(=O)[*:2])[*:1]; X28 = CN([C@@H](Cc1cc(Cl)cnc1OC1CCC1)C(=O)[*:2])[*:1]; Cyclobutanecarbonyl(1-CF3) = O=C(C1(C(F)(F)F)CCC1)*; cBuCO(3,3-F2-1-CF3) = O=C(C1(C(F)(F)F)CC(F)(F)C1)*; Pro(trans-4-F) = O=C(O)[C@@H]1C[C@@H](F)CN1; Gly(cPr) = N[C@H](C(=O)O)C1CC1
Answer each item with its documented GI50.
Answer as a quantity: numeral, then unit.

Give GI50 (NCI-H1048 cells) of the following compound: Cc1cc(-c2ccc(Cl)cc2C[C@H]2C(=O)N(C)CCCCCCC[C@H](N(C)C(=O)[C@@H](NC(=O)[C@@H]3C[C@@H](F)CN3C(=O)C3(C(F)(F)F)CC(F)(F)C3)C3CC3)C(=O)N[C@@H](CC(C)C)C(=O)N2C)ccc1N1CCOCC1 [Example 344] ({cBuCO(3,3-F2-1-CF3)}-[Pro(trans-4-F)][Gly(cPr)][NMehhhLys(Me)]L[X175]; lactam 3-C)
10 nM

// next record CC(C)C[C@@H]1NC(=O)[C@@H](N(C)C(=O)[C@@H](NC(=O)[C@@H]2C[C@@H](F)CN2C(=O)C2(C(F)(F)F)CCC2)C2CC2)CC=CCCCCNC(=O)[C@H](Cc2cc(Cl)cnc2OC2CC2)N(C)C1=O (single isomer, unassigned) [Example 107-P2]
190 nM

// next record CC(C)C[C@@H]1NC(=O)[C@@H](N(C)C(=O)[C@@H](NC(=O)[C@@H]2C[C@@H](F)CN2C(=O)C2(C(F)(F)F)CCC2)C2CC2)CCCCCCCN(C)C(=O)[C@H](Cc2cc(Cl)cnc2OC2CCC2)N(C)C1=O [Example 139] ({Cyclobutanecarbonyl(1-CF3)}-[Pro(trans-4-F)][Gly(cPr)][NMehhhLys(Me)]L[X28]; lactam 3-C)
70 nM
